conditions: in methanol, 318.15 K
parameter: solubility (mole fraction)

O=C(/C=C/c1cn(-c2ccccc2)nc1-c1ccccc1Cl)c1nc2ccccc2[nH]1 = 0.000168
O=C(/C=C/c1cn(-c2ccccc2)nc1-c1cccc([N+](=O)[O-])c1)c1nc2ccccc2[nH]1 = 6.59e-05
COc1ccc(-c2nn(-c3ccccc3)cc2/C=C/C(=O)c2nc3ccccc3[nH]2)cc1 = 0.000167
O=C(/C=C/c1cn(-c2ccccc2)nc1-c1ccc(Cl)cc1)c1nc2ccccc2[nH]1 = 9.36e-05
COc1cccc(-c2nn(-c3ccccc3)cc2/C=C/C(=O)c2nc3ccccc3[nH]2)c1 = 4.62e-05
COc1ccc(-c2nn(-c3ccccc3)cc2/C=C/C(=O)c2nc3ccccc3[nH]2)cc1OC = 5.02e-05
O=C(/C=C/c1cn(-c2ccccc2)nc1-c1ccccc1)c1nc2ccccc2[nH]1 = 9.87e-05

These measurements were taken from BigSolDB 2.1.
